# Measured On: Free fatty acid receptor 1 (Homo sapiens, UniProt O14842)
# Sequence (O14842 whole entry): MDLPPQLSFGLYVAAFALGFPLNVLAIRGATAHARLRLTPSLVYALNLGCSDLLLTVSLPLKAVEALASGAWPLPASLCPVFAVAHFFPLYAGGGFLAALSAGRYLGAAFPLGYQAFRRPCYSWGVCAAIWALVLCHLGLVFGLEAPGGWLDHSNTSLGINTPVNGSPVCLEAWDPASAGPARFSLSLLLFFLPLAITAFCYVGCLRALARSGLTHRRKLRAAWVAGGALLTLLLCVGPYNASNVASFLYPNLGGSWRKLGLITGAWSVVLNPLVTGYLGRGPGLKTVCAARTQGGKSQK
# Assay Summary: Agonist activity at human GPR40 transfected in CHO cells by calcium flux assay relative to TAK-875
# Assay type: functional, cell-based
Documented Emax across a set of molecules
// units = %; emit number, no label

So, O=C(O)C[C@@H]1COc2cc3c(cc21)OC[C@H](c1cccc(-c2ccccc2Cl)c1)O3 (mixture of isomers) ? Its Emax was 97

For record `Cc1cc(OCCCS(C)(=O)=O)c(F)c(C)c1-c1cccc([C@H]2COc3cc4c(cc3O2)OC[C@H]4CC(=O)O)c1` the listed Emax is 77

Documented Emax of `Cc1cc(OCCCS(C)(=O)=O)cc(C)c1-c1cccc([C@H]2COc3cc4c(cc3O2)OC[C@H]4CC(=O)O)c1` : 111

Record summary for `Cc1ccccc1-c1cccc([C@@H]2COc3cc4c(cc3O2)OC[C@H]4CC(=O)O)c1` : reported Emax = 76

---

Entries annotated with measured Emax
# Measured On: Free fatty acid receptor 1 (Homo sapiens, UniProt O14842)
# Assay Summary: Agonist activity at human GPR40 transfected in CHO cells by calcium flux assay relative to TAK-875
# Format: functional, cell-based
Give a bare numeral; the unit % is implied.

{"columns": ["Compound", "Result Value"],
 "data": [
  ["CS(=O)(=O)CCCOc1ccc(-c2ccc(F)c(C3COc4cc5c(cc4O3)OC[C@H]5CC(=O)O)c2)c(Cl)c1 (some centres undefined)", 102]
]}

Entry `O=C(O)C[C@@H]1COc2cc3c(cc21)OC[C@@H](c1cccc(-c2ccccc2Cl)c1)O3` ; assay system Free fatty acid receptor 1 (Homo sapiens, UniProt O14842); Emax recorded at 99

Recorded Emax for O=C(O)C[C@@H]1COc2cc3c(cc21)OCC(c1cccc(-c2ccccc2)c1)O3 (some centres undefined) on Free fatty acid receptor 1 (Homo sapiens, UniProt O14842) was 105

The reported Free fatty acid receptor 1 (Homo sapiens, UniProt O14842) Emax of `O=C(O)C[C@@H]1COc2cc3c(cc21)OC[C@@H](c1cccc(Br)c1)O3` is 120

// Emax (Free fatty acid receptor 1 (Homo sapiens, UniProt O14842)) for O=C(O)C[C@@H]1COc2cc3c(cc21)OCC(c1cccc(-c2ccccc2F)c1)O3 (some centres undefined) = 115

Test item `O=C(O)C[C@@H]1COc2cc3c(cc21)OC[C@H](c1cccc(Cl)c1)O3` ; Free fatty acid receptor 1 (Homo sapiens, UniProt O14842); reported Emax was 72

---

# Measured On: Free fatty acid receptor 1 (Homo sapiens, UniProt O14842)
# Assay Summary: Agonist activity at human GPR40 transfected in CHO cells by calcium flux assay relative to TAK-875
# Format: functional, cell-based
Below is a list of entries, each paired with its recorded Emax value.
Give just the numeric value; % need not be written.

{"columns": ["Compound", "Measured On", "Result Value"],
 "data": [
  ["O=C(O)C[C@@H]1COc2cc3c(cc21)OC[C@@H](c1cccc(Cl)c1)O3", "Free fatty acid receptor 1 (Homo sapiens, UniProt O14842)", 87],
  ["Cc1cc(C)c(-c2cccc(C3COc4cc5c(cc4O3)OC[C@H]5CC(=O)O)c2)c(C)c1 (stereo partly drawn)", "Free fatty acid receptor 1 (Homo sapiens, UniProt O14842)", 103],
  ["O=C(O)C[C@@H]1COc2cc3c(cc21)OC[C@H](c1cccc(Br)c1)O3", "Free fatty acid receptor 1 (Homo sapiens, UniProt O14842)", 105]
]}

Record `Cc1cccc(C)c1-c1cccc([C@@H]2COc3cc4c(cc3O2)OC[C@H]4CC(=O)O)c1` , field Emax: 85

Record `CS(=O)(=O)CCCOc1ccc(-c2cccc([C@@H]3COc4cc5c(cc4O3)OC[C@H]5CC(=O)O)c2)c(Cl)c1` , field Emax: 89

The recorded Emax for `O=C(O)C[C@@H]1COc2cc3c(cc21)OC[C@@H](c1ccc(Cl)c(Cl)c1)O3` is 129

Looking up Cc1cc(C)cc(-c2cccc(C3COc4cc5c(cc4O3)OC[C@H]5CC(=O)O)c2)c1 (stereo partly drawn) , I found its Emax recorded as 68

Query `O=C(O)C[C@@H]1COc2cc3c(cc21)OC[C@H](c1cccc(C(F)(F)F)c1)O3` yields Emax of 55.6

---

Entries and their EC50
# Measured On: UniProt O14842
# Assay Summary: Agonist activity at human GPR40 transfected in CHO cells by calcium flux assay
Field format: number, assumed µM, no unit text.

Some solved cases for reference:
{"columns": ["Molecule", "Measured On", "Unit Tag", "EC50"],
 "data": [
  ["O=C(O)C[C@@H]1COc2cc3c(cc21)OC[C@@H](c1cccc(Br)c1)O3", "UniProt O14842", "µM", 0.0135],
  ["CS(=O)(=O)CCCOc1ccc(-c2cccc([C@H]3COc4cc5c(cc4O3)OC[C@H]5CC(=O)O)c2)c(Cl)c1", "UniProt O14842", "µM", 0.145],
  ["O=C(O)C[C@@H]1COc2cc3c(cc21)OCC(c1cccc(Br)c1)O3 (some centres undefined)", "UniProt O14842", "µM", 0.0547]
]}

// next item, EC50 requested
So, `O=C(O)C[C@@H]1COc2cc3c(cc21)OC[C@H](c1cccc(Br)c1)O3` ? Its EC50 was 0.111

---

# Measured On: Free fatty acid receptor 1 (Homo sapiens, UniProt O14842)
# Assay Summary: Agonist activity at human GPR40 transfected in CHO cells by calcium flux assay
Exam item: assign TRUE to entries whose EC50 is below 70 nM and FALSE to entries at or above 70 nM. Note that a value of exactly 70 nM receives FALSE.

Some solved cases for reference:
{"columns": ["Compound", "Class"],
 "data": [
  ["O=C(O)C[C@@H]1COc2cc3c(cc21)OC[C@@H](c1cccc(-c2ccccc2Cl)c1)O3", "TRUE"],
  ["CS(=O)(=O)CCCOc1ccc(-c2cc(F)cc(C3COc4cc5c(cc4O3)OC[C@H]5CC(=O)O)c2)c(Cl)c1 (stereo not given in full)", "FALSE"],
  ["O=C(O)C[C@@H]1COc2cc3c(cc21)OCC(c1cccc(-c2ccccc2F)c1)O3 (stereo not given in full)", "FALSE"],
  ["O=C(O)C[C@@H]1COc2cc3c(cc21)OCC(c1cccc(-c2ccccc2)c1)O3 (stereo not given in full)", "TRUE"]
]}

Please examine the following record next.
Please indicate whether the reported EC50 of `Cc1cccc(C)c1-c1cccc([C@H]2COc3cc4c(cc3O2)OC[C@H]4CC(=O)O)c1` is strictly below 70 nM.
TRUE

---

# Measured On: Free fatty acid receptor 1 (Homo sapiens)
# Assay Summary: Agonist activity at human GPR40 transfected in CHO cells by calcium flux assay relative to TAK-875
# Type: functional, cell-based
// classify: if (Emax < 70%) 1 else -1

Observe how each entry below is paired with its result.
{"columns": ["Molecule", "Class"],
 "data": [
  ["O=C(O)C[C@@H]1COc2cc3c(cc21)OCC(c1cccc(C2CC2)c1)O3 (some centres undefined)", 1],
  ["Cc1cc(F)ccc1-c1cccc(C2COc3cc4c(cc3O2)OC[C@H]4CC(=O)O)c1 (some centres undefined)", -1],
  ["Cc1cc(OCCCS(C)(=O)=O)ccc1-c1cccc(C2COc3cc4c(cc3O2)OC[C@H]4CC(=O)O)c1 (some centres undefined)", 1],
  ["O=C(O)C[C@@H]1COc2cc3c(cc21)OCC(c1cccc(-c2ccccc2C(F)(F)F)c1)O3 (some centres undefined)", -1],
  ["O=C(O)C[C@@H]1COc2cc3c(cc21)OCC(c1cc(F)cc(Br)c1)O3 (some centres undefined)", 1],
  ["Cc1ccccc1-c1cccc([C@H]2COc3cc4c(cc3O2)OC[C@H]4CC(=O)O)c1", -1],
  ["O=C(O)C[C@@H]1COc2cc3c(cc21)OC[C@H](c1ccc(Cl)c(Cl)c1)O3", 1]
]}

Threshold test, Emax < 70%: CS(=O)(=O)CCCOc1ccc(-c2cc(C3COc4cc5c(cc4O3)OC[C@H]5CC(=O)O)ccc2F)c(Cl)c1 (some centres undefined)
1

---

# Assay Summary: Lipophilicity, log D of the compound
# Type: physicochemical
# Experimental Setup: octanol/water
logD listing for selected molecules.

{"columns": ["Substance Smiles", "Result Value"],
 "data": [
  ["O=C(O)C[C@@H]1COc2cc3c(cc21)OC[C@@H](c1cccc(Cl)c1)O3", "< 3"]
]}

// `O=C(O)C[C@@H]1COc2cc3c(cc21)OC[C@@H](c1cccc(Br)c1)O3` : logD value = < 3

---

# Measured On: Free fatty acid receptor 1 (Homo sapiens)
# Assay Summary: Agonist activity at human GPR40 transfected in CHO cells by calcium flux assay
Assay Metric: pEC50
// field semantics: pEC50 = negative decimal log of concentration (mol/L)

For `Cc1cc(OCCCS(C)(=O)=O)c(F)c(C)c1-c1cccc([C@H]2COc3cc4c(cc3O2)OC[C@H]4CC(=O)O)c1` the molecule record lists pEC50 as 6.92
